- procedure.details: Terminal half life in cynomolgus monkey at 2 mg/kg, iv measured for 24 hrs by LC-MS/MS analysis
- Assay type: ADME, organism-based, Macaca fascicularis
- reported.conditions: in vivo, read-out: beta t1/2 (converted)
property.measured: half-life (h)
Give a bare numeral; the unit h is implied.

Query: Value lookup for half-life; key = CCOc1c([C@H](C)n2nc(C)c3c(N)ncnc32)cc(Cl)c(F)c1[C@@H]1CNC(=O)C1
Response: 7.3

----------
- procedure.details: Half life in cynomolgus monkey at 2 mg/kg, po measured for 24 hrs by LC/MS/MS analysis
- Assay type: ADME, organism-based, Macaca fascicularis
- reported.conditions: in vivo
property.measured: half-life (min)
Give a bare numeral; the unit min is implied.

Query: Value lookup for half-life; key = COc1c([C@H](C)Nc2ncnc(N)c2C#N)cc(Cl)c(C)c1-c1ccc(C(=O)N(C)C)cn1
Response: 12
